- test.system: T1, Human TIGIT protein with HIS tag (human, UniProt Q495A1 22-141)
- T1 construct: A soluble analyte is probably only the extracellular part; also called human TIGIT recombinant protein; not shown: HIS tag
- T1 sequence: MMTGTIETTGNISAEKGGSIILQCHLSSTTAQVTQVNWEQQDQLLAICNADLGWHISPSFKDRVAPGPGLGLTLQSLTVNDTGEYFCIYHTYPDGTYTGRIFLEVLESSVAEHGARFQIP
- assay.text: SPR Biacore T200; antibody Fc-captured, TIGIT-His analyte
- Method: Binding kinetics of the chimeric anti-human TIGIT monoclonal antibodies and the humanized anti-human TIGIT monoclonal antibodies to human TIGIT were determined using a Surface Plasmon Resonance (SPR) biosensor, BIACORE® T200 (GE Healthcare). […] The apparent equilibrium dissociation constants (KD) were calculated from the ratio of kd over kₐ.
readout: koff (s⁻¹)
Give just the number in s⁻¹; leave the unit off.

# return recorded koff for entry 100C4E7D11VH1_VL1 (antibody, V domains shown, Humanized antibody, variable domains fused with the constant region of human IgG1; also called 100C4VH1_VL1) VH: EVQLVESGGGLVKPGGSLRLSCAASGFTFSFYTMSWVRQAPGKGLEWVSTISSGGGSTYYSDSVKGRFTISRDNAKNSLYLQMNSLRAEDTAVYYCARSLPVDYWGQGTTVTVSS VL: EIVLTQSPGTLSLSPGERATLSCTASSSVSSTYLHWYQQKPGQAPRLLIYSTSNLASGIPDRFSGSGSGTDFTLTISRLEPEDFAVYYCHLYHHSPYTFGGGTKVEIK
0.00035
